# Test system: HCC 2998
# experimental.protocol: NCI tumour cell line growth inhibition, 48 h
Active and inactive are the calls of the source. No stated cut-off is given here; in the data, active = GI50 up to about 1.1 µM and inactive = higher.
measured.property: GI50

The cases that follow already have their GI50 on record.
C/C(=N\NC(=S)N1CCCC1)c1nc2cccnc2[nH]1	19.3 µM (inactive)
COc1ccccc1C(N)c1ccccc1 (stereo unspecified)	> 100 µM (inactive)
S=C1N=C2C(=N1)n1c3c(c4ccccc41)CCCC23 (stereo unspecified)	> 100 µM (inactive)
COC1CC(OC)C2OC(c3ccccc3)OCC2O1 (stereo unspecified)	> 100 µM (inactive)
COc1cc(CCC(=O)NS(=O)(=O)c2ccccc2)cc(OC)c1OC	> 100 µM (inactive)

Query block: Look up GI50: "CN(/N=C/c1ccc(C(=O)O)cc1)C1=NCCCCN1"
Result block: > 100 µM (inactive)
